- assay: refractive index (Na D-line) (dimensionless)
- condition-description: 313.15 K; 101.33 kPa; Liquid; Standard Abbe refractometry
assay-readout: refractive index
Response field accepts a number only; no unit should be typed.

Consider the following illustrative entries.
INSERT INTO results (molecule, experimental_value) VALUES
  ('CCCC[n+]1ccccc1.F[B-](F)(F)F [1-butylpyridinium tetrafluoroborate]', 1.4419),
  ('CCCC[n+]1ccc(C)cc1.F[B-](F)(F)F [1-butyl-4-methylpyridinium tetrafluoroborate]', 1.44841),
  ('CCO', 1.3527),
  ('CCCC[n+]1cccc(C)c1.F[B-](F)(F)F [1-butyl-3-methylpyridinium tetrafluoroborate]', 1.44706);

Turning now to a further molecule:
Value lookup for refractive index; key = CO 1.32015
